- MEASURED_ON: human mGlu5 recombinant receptor (Homo sapiens)
- Construct: expressed in transfected cells; host or cells: inducible CHO cell line stably expressing Aequorin (Euroscreen FAST); doxycycline-responsive promoter
- Sequence (P41594 21-1212): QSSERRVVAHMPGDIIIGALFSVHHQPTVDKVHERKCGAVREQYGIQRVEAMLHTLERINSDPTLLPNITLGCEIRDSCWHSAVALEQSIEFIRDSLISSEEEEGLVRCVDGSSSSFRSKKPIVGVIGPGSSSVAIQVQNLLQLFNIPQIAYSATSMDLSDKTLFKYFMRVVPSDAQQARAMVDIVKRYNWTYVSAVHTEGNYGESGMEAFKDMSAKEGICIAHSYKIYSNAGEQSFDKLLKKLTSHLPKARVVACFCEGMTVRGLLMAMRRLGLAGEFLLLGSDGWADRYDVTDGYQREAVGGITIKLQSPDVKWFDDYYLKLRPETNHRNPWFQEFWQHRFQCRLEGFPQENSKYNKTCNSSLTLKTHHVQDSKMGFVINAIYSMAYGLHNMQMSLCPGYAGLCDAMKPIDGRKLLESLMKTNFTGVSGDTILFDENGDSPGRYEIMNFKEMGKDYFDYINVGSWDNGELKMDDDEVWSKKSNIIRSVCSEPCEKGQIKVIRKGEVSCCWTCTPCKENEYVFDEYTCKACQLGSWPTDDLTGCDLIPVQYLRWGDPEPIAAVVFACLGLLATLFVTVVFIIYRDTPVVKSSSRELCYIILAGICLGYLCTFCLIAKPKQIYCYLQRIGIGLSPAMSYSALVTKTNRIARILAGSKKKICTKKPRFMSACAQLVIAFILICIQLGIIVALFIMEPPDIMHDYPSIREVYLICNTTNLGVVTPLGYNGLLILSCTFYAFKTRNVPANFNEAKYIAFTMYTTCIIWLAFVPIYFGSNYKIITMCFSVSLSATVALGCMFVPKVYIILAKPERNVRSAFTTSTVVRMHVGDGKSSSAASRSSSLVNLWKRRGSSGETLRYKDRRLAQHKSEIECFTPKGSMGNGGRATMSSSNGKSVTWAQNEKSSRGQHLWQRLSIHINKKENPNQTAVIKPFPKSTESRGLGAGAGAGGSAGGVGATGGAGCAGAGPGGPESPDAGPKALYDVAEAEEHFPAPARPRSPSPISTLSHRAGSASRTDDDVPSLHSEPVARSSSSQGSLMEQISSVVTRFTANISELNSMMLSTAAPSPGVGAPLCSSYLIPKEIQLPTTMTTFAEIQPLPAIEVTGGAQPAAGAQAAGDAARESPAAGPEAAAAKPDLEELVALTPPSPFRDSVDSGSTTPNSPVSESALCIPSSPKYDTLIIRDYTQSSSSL
- PROTOCOL_DETAILS: mGluR5 calcium mobilization in inducible mGluR5 CHO cells (aequorin luminescence, antagonist mode)
- Assay type: cell-based
- EXPERIMENTAL_SETUP: Table 2; antagonist activity against EC80 glutamate, inducible CHO cell line expressing human mGlu5 and Aequorin; read-out: IC50 (uM) Ca^++ flux
REPORTED_ENDPOINT: IC50

COMPOUND	IC50
Cc1cccc(NC(=O)c2nn(C(C)C)c3c2CCc2cccnc2-3)n1	> 10 µM
Cn1nc(CNc2cccc(Cl)c2)c2c1-c1ccccc1OC2	1 to 10 µM
Cn1nc(C(=O)Nc2cccc(Cl)c2)c2c1-c1ccccc1OC2(C)C	> 10 µM

For every item below, please supply its IC50.
1. Cn1nc(C(=O)Nc2cccc(Cl)c2)c2cnc3ccccc3c21
2. Cc1cccc(NC(=O)c2c3c(nn2C)-c2ncccc2CCC3)n1
3. Cc1cccc(NC(=O)c2nn(C)c3c2CCc2ccc(C)nc2-3)n1
4. Cn1nc(C(=O)Nc2cccc(Cl)c2)c2c1-c1ccccc1CC2
5. CCN(Cc1nn(C)c2c1COc1ccccc1-2)C(=O)c1ccc(Br)o1
6. Cn1nc(C(=O)Nc2cccc(Cl)c2)c2c1-c1cc(F)ccc1OC2
7. Cn1nc(C2CCCN(C(=O)c3ccc(F)cc3)C2)c2c1-c1ccccc1CC2 (stereo not shown)
8. Cc1cccc(NC(=O)c2n[nH]c3c2COc2ccccc2-3)n1

a:
1: < 1 µM; 2: > 10 µM; 3: < 1 µM; 4: < 1 µM; 5: > 10 µM; 6: < 1 µM; 7: > 10 µM; 8: > 10 µM

Provide reported IC50 for each item, in the same order as listed.
1. Cn1nc(C(=O)Nc2cccc(Cl)c2)c2c1-c1cc(Cl)ccc1OC2
2. Cn1nc(C(=O)Nc2cc(Cl)ccn2)c2c1-c1ccccc1OC2
3. CC(=O)N1Cc2c(C(=O)Nc3cccc(Cl)c3)nn(C)c2-c2ccccc21
4. Cn1nc(C(=O)Nc2ccc3c(c2)OCCO3)c2c1-c1ccccc1OC2

a:
1: > 10 µM; 2: 1 to 10 µM; 3: < 1 µM; 4: > 10 µM

Record IC50 for all entries; do not skip any.
1. Cn1nc(C(=O)Nc2cc(C#N)ccn2)c2c1-c1ccccc1OC2
2. Cn1nc2c(c1C(=O)Nc1cccc(Cl)c1)COc1ccc(F)cc1-2
3. Cn1nc(C(=O)N2CCOc3ccccc32)c2c1-c1ccccc1OC2
4. CCn1nc(C(=O)Nc2cccc(C)n2)c2c1-c1ncccc1CC2
5. Cn1nc(C(=O)Nc2cccc(Cl)c2)c2c1-c1ccccc1NC2
6. Cn1nc2c(c1C1CCCN(C(=O)c3ccc(F)cc3)C1)CCc1ccccc1-2 (stereo not shown)
7. Cc1cccc(NC(=O)c2nn(C)c3c2CCc2cccnc2-3)n1

a:
1. > 10 µM
2. < 1 µM
3. > 10 µM
4. < 1 µM
5. < 1 µM
6. > 10 µM
7. < 1 µM

Below are some compounds; for each one, tell me its IC50.
1. Cc1cccc(NC(=O)c2nn(C)c3c2CCCc2cccnc2-3)n1
2. Cc1cccc(NC(=O)c2nn(C)c3c2COc2cc(F)ccc2-3)n1
3. Cc1cccc(NC(=O)c2nn(C)c3c2CCc2ccncc2-3)n1

a:
1: < 1 µM; 2: > 10 µM; 3: < 1 µM

###

- MEASURED_ON: human mGlu5 recombinant receptor (Homo sapiens)
- Construct: expressed in transfected cells; host or cells: inducible CHO cell line stably expressing Aequorin (Euroscreen FAST); doxycycline-responsive promoter
- PROTOCOL_DETAILS: mGluR5 calcium mobilization in inducible mGluR5 CHO cells (aequorin luminescence, antagonist mode)
- Type: cell-based
- EXPERIMENTAL_SETUP: Table 3; antagonist activity against EC80 glutamate, inducible CHO cell line expressing human mGlu5 and Aequorin; read-out: IC50 (uM) Ca^++ flux
Please respond with reported IC50 for every item in the list.

Please review the entries below; each comes with its answer.
INPUT_SMILES	REPORTED_ENDPOINT	RESULT
CN(C(=O)c1noc2c1COc1ccccc1-2)c1cccc(Cl)c1	IC50	> 10 µM
COc1ccc(NC(=O)c2n[nH]c3c2COc2ccccc2-3)cc1	IC50	> 10 µM
Cn1nc(C(=O)Nc2ccc(F)cc2)c2c1-c1ccccc1OC2	IC50	> 10 µM
Cn1nc(C(=O)Nc2ccc(Cl)cn2)c2c1-c1ccccc1OC2	IC50	< 1 µM
COc1cccc(NC(=O)c2n[nH]c3c2COc2ccccc2-3)c1	IC50	> 10 µM

List the reported IC50 of each compound below.
1. COc1cccc(NC(=O)c2nn(C)c3c2COc2ccccc2-3)c1
2. Cn1nc(C(=O)Nc2ccc(F)c(Cl)c2)c2c1-c1ccccc1OC2
3. Cn1nc(C(=O)Nc2cccc(Cl)c2)c2c1-c1ccsc1CC2
4. O=C(Nc1ccc(Cl)cc1)c1n[nH]c2c1CCc1ccccc1-2
5. COc1ccc(Cl)cc1NC(=O)c1nn(C)c2c1COc1ccccc1-2
6. CN(C(=O)c1nn(C)c2c1COc1ccccc1-2)c1cccc(Cl)c1
7. Cn1nc(C(=O)Nc2ccc(Cl)cc2)c2c1-c1ccccc1OC2
8. O=C(Nc1cccc(Cl)c1)c1noc2c1CSc1ccccc1-2

a:
> 10 µM
> 10 µM
> 10 µM
> 10 µM
1 to 10 µM
> 10 µM
> 10 µM
< 1 µM

###

- MEASURED_ON: human mGlu5 recombinant receptor (Homo sapiens)
- Construct: expressed in transfected cells; host or cells: inducible CHO cell line stably expressing Aequorin (Euroscreen FAST); doxycycline-responsive promoter
- PROTOCOL_DETAILS: mGluR5 calcium mobilization in inducible mGluR5 CHO cells (aequorin luminescence, antagonist mode)
- Assay type: cell-based
- EXPERIMENTAL_SETUP: Table 3; antagonist activity against EC80 glutamate, inducible CHO cell line expressing human mGlu5 and Aequorin; read-out: IC50 (uM) Ca^++ flux
REPORTED_ENDPOINT: IC50

Answered examples (5):
INPUT_SMILES	RESULT
Cn1nc(C(=O)Nc2cccc(C(F)(F)F)c2)c2c1-c1ccccc1OC2	> 10 µM
O=C(Nc1cccnc1)c1n[nH]c2c1COc1ccccc1-2	> 10 µM
Cn1nc(C(=O)NCc2cccc(Cl)c2)c2c1-c1ccccc1OC2	> 10 µM
Cc1ccc2c(c1)-c1c(c(C(=O)Nc3cccc(Cl)c3)nn1C)CS2	< 1 µM
Cn1nc(C(=O)Nc2cccc(Cl)c2)c2c1-c1ccccc1SC2	< 1 µM

# input for lookup
q: Would you mind telling me what IC50 value was observed for Cn1nc(C(=O)Nc2ccccc2Cl)c2c1-c1ccccc1OC2 ?
a: 1 to 10 µM
